The reported measurements were obtained from patent US10760052B2.

# target.of.assay: mu opiate receptor (MOR) (Rattus norvegicus)
# Construct: from tissue; host or cells: striatum (membrane preparation)
# Sequence (P33535 whole entry): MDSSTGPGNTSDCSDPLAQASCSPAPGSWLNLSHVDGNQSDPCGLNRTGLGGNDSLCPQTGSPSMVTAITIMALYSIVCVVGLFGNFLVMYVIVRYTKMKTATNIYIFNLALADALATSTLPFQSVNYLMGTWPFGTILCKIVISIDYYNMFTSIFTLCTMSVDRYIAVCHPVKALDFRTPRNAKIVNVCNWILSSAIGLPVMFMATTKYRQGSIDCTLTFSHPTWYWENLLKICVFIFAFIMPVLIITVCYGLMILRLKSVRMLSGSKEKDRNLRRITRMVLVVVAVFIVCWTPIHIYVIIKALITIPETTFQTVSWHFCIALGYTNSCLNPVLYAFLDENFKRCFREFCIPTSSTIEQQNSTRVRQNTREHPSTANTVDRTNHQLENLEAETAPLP
# Type: biochemical
Record form. Attribute: % DAMGO + BFNA. Fill in for each entry.
The answer is to be given in %; state only the numeric part.

Note to self: % DAMGO + BFNA of COc1ccc(S(=O)(=O)N2CCC3(CC2)OCCN3S(=O)(=O)c2ccc(OC)cc2)cc1 [Compound 7866] with mu opiate receptor (MOR) (Rattus norvegicus) was 129.5

Response field % DAMGO + BFNA (mu opiate receptor (MOR) (Rattus norvegicus)) for item CC(=O)c1ccc(S(=O)(=O)N2CCC3(CC2)OCCN3S(=O)(=O)c2ccc(C(C)=O)cc2)cc1 [Compound C0011] : 36.5

Assay mu opiate receptor (MOR) (Rattus norvegicus), sample CC1CCC(C(C)C)C(OCC(O)CN2CCCCCC2)C1 (stereo not shown) [Compound A0013] , % DAMGO + BFNA read: 131.1

Item COc1ccccc1CC(=O)CC1c2c(cc3c(c2OC)OCO3)CC[N+]1(C)C (stereo not shown) [Compound 5009] was tested on mu opiate receptor (MOR) (Rattus norvegicus); the reported % DAMGO + BFNA is 181.5
